Test system: HeLa
Test: Primary qHTS to identify gynecologic anti-cancer compounds using libraries of approved drugs and bioactive compounds (AID 1345084); further: nearly all actives have a fitted effect of over 55% in size
Settings: Gynecologic cancer cell panel viability, ATPlite luminescence, 48 h; series mostly up to 57.5 µM
Inconclusive results are not listed. Calls of active or inactive are those of the source. The call rests on the fitted dose curve; in most records, active means well fitted cell-killing curve with a large enough effect; inconclusive means small, poorly fitted or top-dose-only effect, or effect the other way; inactive means flat fitted curve, though single readings scatter.
Outcomes: Y (active), N (inactive)

| compound | class-label |
| --- | --- |
| CC/C(=C(\c1ccc(O)cc1)c1ccc(OCCNC)cc1)c1ccccc1 | N |
| CN(C)C(=O)c1cc2cnc(Nc3ccc(N4CCNCC4)cn3)nc2n1C1CCCC1 | N |
| COc1ccccc1-c1cc(Nc2cccc(CS(N)(=O)=O)c2)ncn1 | Y |
| CC(C)(C)c1ccc(-c2nc3ccccc3[nH]2)cc1 | Y |
| CC(C)n1cnc2c(Nc3cccc(Cl)c3)nc(NCCO)nc21 | N |
| Cc1ccc2c(Nc3ccc(Cl)cc3)nccc2c1Nc1ncccc1-c1ncnc2nc[nH]c12 | N |
| Cn1cc(-c2cnc3ccc4ccc(CS(=O)(=O)NCc5ccccn5)cc4c(=O)c3c2)cn1 | N |
| COc1cc2nc(N3CCN(C)CC3)nc(NC3CCN(Cc4ccccc4)CC3)c2cc1OC | N |
| COc1ccc2c3ccnc4ccc(=O)n(c2c1)c43 | Y |
| CN(CCCNC(=O)c1ccc2nc3c(c(Cl)c2c1)CCCC3)Cc1ccccc1 | N |
| O=C(c1ccc(F)c(F)c1Nc1ccc(I)cc1F)N1CC(O)([C@@H]2CCCCN2)C1 | N |
| CC(=O)C1=C(O)C2c3c[nH]c4cccc(c34)CC2C(C)(C)N(C)C1=O (stereo unspecified) | N |
| O=S(=O)(c1cccc2ccccc12)n1ccc2ccc(N3CCN4CCCC4C3)cc21 (stereo unspecified) | N |
| CN([C@H]1c2cc(OCCCC(F)(F)F)ccc2OC(C)(C)[C@@H]1O)S(C)(=O)=O | N |
| O=C(CC1NCCC[C@H]1O)Cn1cnc2cc(Br)c(Cl)cc2c1=O (stereo partly specified) | N |
| C=C1C(=O)O[C@@H]2CC(C)=C([C@@H](C)CCCO)[C@@H](OC(=O)C(C)C)[C@H]12 | N |
| O=C(NC(NC(=S)Nc1ccc(F)c([N+](=O)[O-])c1)C(Cl)(Cl)Cl)C(c1ccccc1)c1ccccc1 (stereo unspecified) | N |
| O=C(NNc1ccccc1)c1ccncc1 | N |
| Cc1ccn(-c2cc(Cl)ccc2[C@@H](Oc2cc(-c3ccc(C[C@H](N)C(=O)O)cc3)nc(N)n2)C(F)(F)F)n1 | N |
| CCN(CC)Cc1cccc(/C=C/c2nc3ccc(F)cc3c(=O)n2-c2ccccc2Cl)n1 | N |
| C=C1CC[C@@H]2[C@](C)(CO)[C@H](O)CC[C@@]2(C)[C@@H]1C/C=C1/C(=O)OC[C@@H]1O | N |
| O=C(Nc1ncc(SCCN2CCCC2)s1)C1(c2ccc(S(=O)(=O)C3CC3)cc2)CC1C1CCCCC1 (stereo unspecified) | N |
| C=C(C(=O)O)C1CC2=C(C)C(=O)CC2C(C)CC1O (stereo unspecified) | N |
| O=C(O)c1ccc(O)c2ncc(N3CCCN(CCc4cccc5ccccc45)CC3)cc12 | N |
| CC(=O)N[C@@H](CC(=O)O)C(=O)N[C@@H](CCC(=O)O)C(=O)N[C@H](C(=O)N[C@@H](CC(=O)O)C(=O)Nc1ccc2c(C)cc(=O)oc2c1)C(C)C | N |
| CC(C)[C@@H](C)/C=C/[C@@H](C)[C@H]1CC[C@H]2C3=CC=C4C[C@@H](O)CC[C@]4(C)C3=CC[C@]12C | N |
| COc1ccc(C(=O)N(CCC(C)C)Cc2nc(C)c(C)n2Cc2ccccc2C)c(OC)c1 | N |
| CC(C)c1ccc(NC(=O)C(c2ccccc2)N(C)C(=O)Cc2c[nH]c3ccccc23)cc1 (stereo unspecified) | N |
| Cn1c(NC[C@@H](N)Cc2ccccc2)nc(-c2ccncc2)c(-c2ccc3ccccc3c2)c1=O | N |
| C[C@@H](CN1CCC(n2c(=O)[nH]c3cc(Cl)ccc32)CC1)NC(=O)c1ccc2ccccc2c1 | N |
| C=C1/C(=C/C=C2\CCC[C@]3(C)[C@@H]([C@H](C)/C=C/C(=O)C4CC4)CC[C@@H]23)C[C@@H](O)C[C@@H]1O | N |
| COc1ccc(NS(=O)(=O)c2sc3ccc(Cl)cc3c2C)cc1N1CCNCC1 | N |
| CCNC(=O)[C@@H]1CCCN1C(=O)[C@H](CCCN=C(N)N)NC(=O)[C@H](CC(C)C)NC(=O)[C@@H](CC(C)C)NC(=O)[C@H](Cc1ccc(O)cc1)NC(=O)[C@H](CO)NC(=O)[C@H](Cc1c[nH]c2ccccc12)NC(=O)[C@H](Cc1cnc[nH]1)NC(=O)[C@@H]1CCC(=O)N1 | N |
| CC[C@H](CO)Nc1nc(Nc2cccc(-c3ccccn3)c2)c2ncn(C(C)C)c2n1 | N |
| CC1(C)CC23[C@@H]4CC(=O)[C@@H]2COC(=O)[C@@H]3CC[C@H]41 | N |
| CC1CCCC(SCC(O)C(=O)O)CC(=O)c2c(O)cc(O)cc2CC(=O)O1 (stereo unspecified) | N |

* * *

Assay: qHTS for Inhibitors of Plasmodium falciparum (HB3) proliferation (AID 504318); further: nearly all actives have a fitted effect of over 60% in size
Conditions: P. falciparum HB3 in erythrocytes, SYBR Green DNA, 72 h; series mostly up to 7.21 µM
Inconclusive results are not listed. The source made the active and inactive calls. The call rests on the fitted dose curve; in most records, active means well fitted inhibition curve with a large enough effect; inconclusive means small, poorly fitted or top-dose-only effect; inactive means flat fitted curve, though single readings scatter.
Outcomes: Y for active, N for inactive

| compound | class-label |
| --- | --- |
| CCN1C(=O)NC(c2ccc(Br)cc2)C(C(C)=O)=C1C (stereo not given) | N |
| CCCC[C@]12Cc3cc(OC)c(OC)cc3[C@H](O1)C1=C(CC3(CCCCC3)OC1=O)O2 | N |
| CON(C)C(=O)c1nnc2c3ccccc3n(S(=O)(=O)c3ccc(C)cc3)c2n1 | N |
| COC(=O)C1=C(C(=O)OC)[C@@H]2N(C)c3ccc(OC)cc3[C@@]23C[C@@H](C(=O)OC)N(C(=O)c2ccco2)C3=N1 | N |
| COC(=O)[C@@]1(C=C2c3ccc(OC)cc3[C@@H](OC)[C@@H]2C)[C@@H]2C=CC[C@@H]21 | N |
| C=CCCN1C(=O)NC(c2ccccc2)C(C(C)=O)=C1C (stereo not given) | N |
| COC(=O)C1=C(C(=O)OC)[C@@H]2N(Cc3ccccc3)c3ccccc3[C@@]23CCC(=O)N(CC2CC2)C3=N1 | Y |
| COC(=O)C1(C)C=C(Nc2ccc(OC)cc2)C(=O)N1c1ccc(OC)cc1 (stereo not given) | N |
| COC(=O)N1C(C2CC2)=Cc2ccccc2C1CC(C)=O (stereo not given) | N |
| CNc1ccccc1C(=O)OCC(C)=O | N |

* * *

System: CP247
Assay: qHTS profiling for inhibitors of Plasmodium falciparum proliferation (AID 504749); further: nearly all actives have a fitted effect of over 60% in size
Details: P. falciparum in erythrocytes, SYBR Green DNA, 72 h; series mostly up to 28.7 µM
Records with an inconclusive call do not appear. The source made the active and inactive calls. Calls follow the shape of the dose curve; as a rule, active = well fitted inhibition curve with a large enough effect; inconclusive = small, poorly fitted or top-dose-only effect; inactive = flat fitted curve, though single readings scatter.
Outcomes: active, inactive

| compound | class-label |
| --- | --- |
| O=C1c2cccc3c2[C@@H](CCC3)CN1[C@@H]1CN2CCC1CC2 | inactive |
| O=C(CC1NCCC[C@H]1O)Cn1cnc2cc(Br)c(Cl)cc2c1=O (stereo not given in full) | active |
| CC(=O)[C@H]1CC[C@H]2C3CC=C4C[C@@H](O)CC[C@]4(C)C3CC[C@]12C (stereo not given in full) | inactive |
| CC(C)C[C@@H](NC(=O)[C@H](Cc1ccccc1)NC(=O)c1cnccn1)B(O)O | active |
| C[C@@H](C(=O)O)c1ccc(-c2ccccc2)c(F)c1 | inactive |

* * *

System: Zika virus NS2B-NS3 protease (linked construct)
Assay: Primary screen NINDS Rhodamine qHTS for Zika virus inhibitors (AID 1347160); further: nearly all actives have a fitted effect of over 55% in size; further: potency means the concentration at half of the fitted maximal effect
Settings: purified NS2B-NS3 protease, Rhodamine110 substrate fluorescence; series mostly up to 57.1 µM
Results filed as inconclusive are left out. Activity calls are given as the source filed them. The call rests on the fitted dose curve; in most records, active means well fitted inhibition curve with a large enough effect; inconclusive means small, poorly fitted or top-dose-only effect; inactive means no such curve, though single readings can be large or run the other way.

| compound | Potency |
| --- | --- |
| CC(=O)C1=C(O)C2c3c[nH]c4cccc(c34)CC2C(C)(C)N(C)C1=O (stereo not given) | inactive |
| CC(C)CCC[C@@H](C)[C@H]1CC[C@H]2[C@@H]3CC=C4C[C@@H](OC(=O)NCCN(C)C)CC[C@]4(C)[C@H]3CC[C@]12C | inactive |
| CC1(C)SC2C(NC(=O)[C@H](C(=O)O)c3ccsc3)C(=O)N2C1C(=O)O (stereo not given in full) | inactive |
| O=C(OC1Cc2c(O)cc(O)cc2OC1c1cc(O)c(O)c(O)c1)c1cc(O)c(O)c(O)c1 (stereo not given) | 1560 nM (active) |
| COc1cc(/C=C/C(=O)O)ccc1O | inactive |
